target: recombinant human MMP-2 (Homo sapiens, UniProt P08253); experiment: In vitro fluorescence assay of MMP-2 activity
Sequence (P08253 110-660): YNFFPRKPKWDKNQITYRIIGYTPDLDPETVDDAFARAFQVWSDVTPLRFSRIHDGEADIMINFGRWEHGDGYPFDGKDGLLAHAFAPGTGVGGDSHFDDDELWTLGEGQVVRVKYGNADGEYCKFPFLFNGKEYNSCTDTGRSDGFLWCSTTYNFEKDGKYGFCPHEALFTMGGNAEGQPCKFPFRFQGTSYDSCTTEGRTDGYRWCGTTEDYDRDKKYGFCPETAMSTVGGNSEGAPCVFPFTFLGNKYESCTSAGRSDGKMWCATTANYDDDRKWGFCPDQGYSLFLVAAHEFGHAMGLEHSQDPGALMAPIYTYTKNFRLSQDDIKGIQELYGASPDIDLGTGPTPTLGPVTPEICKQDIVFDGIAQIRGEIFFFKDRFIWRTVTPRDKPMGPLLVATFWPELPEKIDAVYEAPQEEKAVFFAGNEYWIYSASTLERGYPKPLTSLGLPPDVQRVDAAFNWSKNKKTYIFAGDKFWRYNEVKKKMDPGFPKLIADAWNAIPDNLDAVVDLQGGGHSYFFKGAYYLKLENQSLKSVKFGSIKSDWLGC
outcome.measure: pIC50
Convention used: pIC50 is expressed as -log10 of the molar concentration.

Reported pIC50 of `O=C(O)CC[C@H](NC(=O)c1ccc(-c2ccccc2)cc1)C(=O)NCCCCCCO` : 5.10

Reported pIC50 of `COc1cccc(CCNC(=O)[C@H](CCC(=O)O)NC(=O)c2ccc(-c3ccccc3)cc2)c1` : 5.15

Reported pIC50 of CC(C)(Cc1ccc(F)cc1)NC(=O)C(CCC(=O)O)NC(=O)c1ccc(-c2ccccc2)cc1 (racemic) : 4.73

Reported pIC50 of `CC(C)(Cc1ccc(Cl)cc1)NC(=O)[C@H](CCC(=O)O)NC(=O)c1ccc(-c2ccc(Cl)cc2)cc1` : 5.58

Reported pIC50 of `CC(C)(Cc1ccc(F)cc1)NC(=O)[C@H](CCC(=O)O)NC(=O)c1ccc(-c2ccsc2)cc1` : 5.29

Reported pIC50 of `CC(C)(Cc1ccccc1)NC(=O)[C@H](CCC(=O)O)NC(=O)c1ccc(-c2ccc(Cl)cc2)s1` : 5.16

----------
target: purified recombinant human Aggrecanase-2 (Ag2t-Phe628-Strep) (Homo sapiens); construct: the form used is denoted as Ag2t-Phe628-Strep (MW=41,737); assay: In vitro fluorescence screen for Aggrecanase-2 inhibitors; type: biochemical; conditions: Table 3; read-out: Agg 2 IC50
Sequence (Q9UNA0 262-628): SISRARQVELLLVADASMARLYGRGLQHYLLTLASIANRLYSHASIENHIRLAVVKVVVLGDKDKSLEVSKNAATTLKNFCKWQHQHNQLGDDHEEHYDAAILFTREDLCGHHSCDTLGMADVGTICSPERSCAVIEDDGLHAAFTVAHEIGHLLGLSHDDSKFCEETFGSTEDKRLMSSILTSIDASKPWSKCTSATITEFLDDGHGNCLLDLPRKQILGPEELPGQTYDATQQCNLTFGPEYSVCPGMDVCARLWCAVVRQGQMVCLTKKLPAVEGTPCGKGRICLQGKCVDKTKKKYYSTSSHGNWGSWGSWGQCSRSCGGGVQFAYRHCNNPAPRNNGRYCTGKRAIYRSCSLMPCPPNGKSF
outcome.measure: pIC50
Convention used: pIC50 is expressed as -log10 of the molar concentration.

Reported pIC50 of `CC(C)(Cc1ccc(Cl)cc1)NC(=O)[C@H](CCC(=O)O)NC(=O)c1ccc(-c2ccc(F)c(Cl)c2)s1` : 5.52

Reported pIC50 of CC(C)(Cc1ccc(F)cc1)NC(=O)[C@H](CCC(=O)O)NC(=O)c1ccc(-c2ccc(F)c(Cl)c2)cc1 [Example 8SSSSSSS] : 6.64

Reported pIC50 of CC(C)(Cc1ccc(Cl)cc1)NC(=O)[C@H](CCC(=O)O)NC(=O)c1ccc(-c2c(F)cccc2F)cc1 [Example 8CCCCCCC] : 6.17

Reported pIC50 of O=C(O)CC[C@H](NC(=O)c1ccc(-c2ccc(OCc3cccc(-c4ccccc4)c3)cc2)cc1)C(=O)NCc1ccccc1 [Example 15U] : 6.22

Reported pIC50 of CC(C)(Cc1ccc(F)cc1)NC(=O)[C@H](CCC(=O)O)NC(=O)c1ccc(-c2ccc(Cl)s2)cc1 [Example 8WWWWWWW] : 7.30

Reported pIC50 of `CC(C)(Cc1ccc(F)cc1)NC(=O)[C@H](CCC(=O)O)NC(=O)c1ccc(Br)cc1` : 5.13

Reported pIC50 of CC(C)(Cc1ccc(F)cc1)NC(=O)[C@H](CCC(=O)O)NC(=O)c1ccc(-c2ccc(F)c(F)c2)cc1 [Example 8YYYYYY] : 7.52

----------
molecular target: purified recombinant human Aggrecanase-2 (Ag2t-Phe628-Strep) (Homo sapiens); construct: the form used is denoted as Ag2t-Phe628-Strep (MW=41,737); assay: In vitro fluorescence screen for Aggrecanase-2 inhibitors; type: biochemical; details: Table 2; read-out: Agg 2 IC50
outcome.measure: pIC50
Convention used: pIC50 is expressed as -log10 of the molar concentration.

Reported pIC50 of O=C(O)CC[C@H](NC(=O)c1ccc2c(c1)C(=O)c1ccccc1-2)C(=O)NCc1ccccc1 [Example 8IIIII] : 5.72

Reported pIC50 of CCOc1cccc(-c2ccc(C(=O)N[C@@H](CCC(=O)O)C(=O)NC(C)(C)Cc3ccc(F)cc3)cc2)c1 [Example 17DD] : 5.92

Reported pIC50 of CC(C)c1ccc(-c2ccc(C(=O)N[C@@H](CCC(=O)O)C(=O)NC(C)(C)Cc3ccccc3)cc2)cc1 [Example 17T] : 5.14

Reported pIC50 of CCC(C)c1ccc(-c2ccc(C(=O)N[C@@H](CCC(=O)O)C(=O)NC(C)(C)Cc3ccccc3)cc2)cc1 (stereo partly drawn) [Example 17S] : 5.00

Reported pIC50 of O=C(O)CC[C@H](NC(=O)c1ccc(-c2ccc3occc3c2)cc1)C(=O)NCC12CC3CC(CC(C3)C1)C2 [Example 17BB] : 5.54

Reported pIC50 of COc1ccc(CCN(C)C(=O)[C@H](CCC(=O)O)NC(=O)c2ccc3c(c2)Cc2ccccc2-3)cc1OC [Example 8IIIIII] : 4.92

Reported pIC50 of CC(C)c1cccc(-c2ccc(C(=O)N[C@@H](CCC(=O)O)C(=O)NC(C)(C)Cc3ccc(F)cc3)cc2)c1 [Example 17FF] : 4.86

Reported pIC50 of O=C(O)CC[C@H](NC(=O)c1ccc(C#Cc2ccccc2)cc1)C(=O)NCc1ccccc1 [Example 12G] : 4.93

Reported pIC50 of CCCNC(=O)[C@H](CCC(=O)O)NC(=O)c1ccc2c(c1)Cc1ccccc1-2 [Example 8FFFFF] : 6.15

Reported pIC50 of COc1cc(CNC(=O)[C@H](CCC(=O)O)NC(=O)c2ccc(-c3cccc(O)c3)cc2)cc(OC)c1OC [Example 17RR] : 7.59

Reported pIC50 of O=C(O)CC[C@H](NC(=O)c1ccc(-c2ccccc2)cc1)C(=O)NCC12CC3CC(CC(C3)C1)C2 [Example 8AAAAAA] : 5.75
